- experimental target: hERG (Homo sapiens)
- Sequence (Q12809 whole entry): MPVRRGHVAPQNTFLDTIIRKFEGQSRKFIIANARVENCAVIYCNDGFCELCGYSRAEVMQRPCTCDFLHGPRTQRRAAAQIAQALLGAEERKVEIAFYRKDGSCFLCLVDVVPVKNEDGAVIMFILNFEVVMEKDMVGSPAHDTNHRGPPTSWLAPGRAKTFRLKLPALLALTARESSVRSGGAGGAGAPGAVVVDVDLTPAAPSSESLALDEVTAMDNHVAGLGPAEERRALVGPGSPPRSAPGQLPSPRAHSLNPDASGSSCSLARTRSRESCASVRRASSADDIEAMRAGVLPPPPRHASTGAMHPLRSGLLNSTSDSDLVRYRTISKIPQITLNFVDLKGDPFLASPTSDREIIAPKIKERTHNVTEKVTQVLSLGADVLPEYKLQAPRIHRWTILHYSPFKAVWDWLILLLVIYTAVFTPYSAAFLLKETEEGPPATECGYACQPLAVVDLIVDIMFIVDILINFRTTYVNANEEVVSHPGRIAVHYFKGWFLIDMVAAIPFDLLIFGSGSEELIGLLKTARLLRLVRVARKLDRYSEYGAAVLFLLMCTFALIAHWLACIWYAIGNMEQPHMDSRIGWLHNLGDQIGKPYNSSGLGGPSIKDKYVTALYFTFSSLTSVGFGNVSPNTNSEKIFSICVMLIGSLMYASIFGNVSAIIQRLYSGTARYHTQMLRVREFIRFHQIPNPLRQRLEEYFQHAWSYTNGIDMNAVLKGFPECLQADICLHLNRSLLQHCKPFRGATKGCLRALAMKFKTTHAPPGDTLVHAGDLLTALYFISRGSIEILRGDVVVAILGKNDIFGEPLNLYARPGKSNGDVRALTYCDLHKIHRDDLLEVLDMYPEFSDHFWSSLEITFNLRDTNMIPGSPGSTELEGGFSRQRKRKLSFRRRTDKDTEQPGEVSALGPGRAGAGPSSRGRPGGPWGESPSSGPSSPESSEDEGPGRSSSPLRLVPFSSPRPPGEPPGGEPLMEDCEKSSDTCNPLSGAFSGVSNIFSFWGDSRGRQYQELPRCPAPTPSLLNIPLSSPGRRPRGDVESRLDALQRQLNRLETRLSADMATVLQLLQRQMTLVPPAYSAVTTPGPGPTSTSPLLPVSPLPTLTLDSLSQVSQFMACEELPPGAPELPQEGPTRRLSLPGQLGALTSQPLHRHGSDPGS
- protocol text: hERG test in HEK293 cells
measured parameter: pIC50
Just the number, please; pIC50 means minus log10 of the concentration in mol/L.

Reported pIC50 for O=C(NO)c1ccc(CN2CCCc3cc(Cl)ccc32)cc1 was 4.91

====

- experimental target: CYP3A4 (Homo sapiens, UniProt P08684)
- Sequence (P08684 whole entry): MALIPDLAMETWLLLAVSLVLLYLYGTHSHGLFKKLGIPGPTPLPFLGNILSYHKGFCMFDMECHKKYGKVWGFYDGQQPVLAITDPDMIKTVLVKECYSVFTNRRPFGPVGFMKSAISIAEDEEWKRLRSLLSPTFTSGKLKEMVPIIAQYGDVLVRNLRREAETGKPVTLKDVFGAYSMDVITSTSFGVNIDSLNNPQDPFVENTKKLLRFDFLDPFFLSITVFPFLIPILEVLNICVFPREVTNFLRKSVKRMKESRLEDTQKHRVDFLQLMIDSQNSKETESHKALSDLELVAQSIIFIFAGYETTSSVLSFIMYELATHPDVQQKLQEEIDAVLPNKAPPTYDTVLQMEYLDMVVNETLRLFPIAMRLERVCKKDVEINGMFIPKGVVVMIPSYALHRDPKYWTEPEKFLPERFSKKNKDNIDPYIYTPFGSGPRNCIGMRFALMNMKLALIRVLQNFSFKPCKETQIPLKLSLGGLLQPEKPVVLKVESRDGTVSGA
- protocol text: CYP inhibition, 3A4
- Type: in vitro ADME
measured parameter: inhibition at 10 µM (%)
Numeric only. Scale: %

Reported inhibition at 10 µM for O=C(NO)c1ccc(CN2CCCc3cc(Cl)ccc32)cc1 was -0.63

====

Here, each record is paired with measured concentration at which acetylated α-tubulin levels are elevated data.
- Tested on: acetylated α-tubulin
- protocol text: α-Tubulin acetylation studies in HEK293 cells
- Type: cell-based
- condition notes: tested at 0.01, 0.1, 1, and 10 μM
Kindly write the number and append the unit.

O=C(NO)c1ccc(CN2CCc3ccc(F)cc32)cc1	1 µM
CN(C)c1ccc(Cc2ccc(C(=O)NO)cc2)cc1	10 µM
O=C(NO)c1ccc(Cn2cccn2)cc1 [Compound 6, 4-(1-Pyrazolylmethyl)-N-hydroxybenzamide]	10 µM

Reported concentration at which acetylated α-tubulin levels are elevated for O=C(NO)c1ccc(CN2CCc3ccc(Cl)cc32)cc1 was 1 µM
